- runParameters: in n-propanol, 300.65 K
resultType: solubility (mole fraction)
Field format: numeric only.

[Q] Give the measured solubility (mole fraction) of N=C(Nc1ccccc1)Nc1ccccc1 .
[A] 0.0379

====

- runParameters: in isobutanol, 288.15 K
resultType: solubility (mole fraction)

[Q] I'd like to know its solubility (mole fraction). The molecule in question is N=C(Nc1ccccc1)Nc1ccccc1
[A] 0.0208

====

- runParameters: in ethanol, 285.65 K
resultType: solubility (mole fraction)
Lab note: jot the number down without any unit.

[Q] Tell me the measured solubility (mole fraction) of N=C(Nc1ccccc1)Nc1ccccc1 , please.
[A] 0.0217

====

- runParameters: in ethyl acetate, 288.15 K
resultType: solubility (mole fraction)
// return a plain number; no unit text

[Q] // solubility (mole fraction) lookup, key: N=C(Nc1ccccc1)Nc1ccccc1
[A] 0.0435

====

- runParameters: in acetonitrile, 285.65 K
resultType: solubility (mole fraction)
No unit in the answer, please; the number alone is enough.

[Q] Please give the measured solubility (mole fraction) for this compound: N=C(Nc1ccccc1)Nc1ccccc1
[A] 0.0134

====

- runParameters: in acetone, 285.65 K
resultType: solubility (mole fraction)
In your answer, state the number alone without any accompanying words.

[Q] What value of solubility (mole fraction) has been reported for the following compound? N=C(Nc1ccccc1)Nc1ccccc1
[A] 0.0648

====

- runParameters: in ethanol, 300.65 K
resultType: solubility (mole fraction)

[Q] Request the reported solubility (mole fraction) associated with N=C(Nc1ccccc1)Nc1ccccc1
[A] 0.0337

====

- runParameters: in ethanol, 283.15 K
resultType: solubility (mole fraction)
Lab note: jot down the number only; don't add units.

[Q] Give the measured solubility (mole fraction) of N=C(Nc1ccccc1)Nc1ccccc1 .
[A] 0.0199

====

- runParameters: in n-butanol, 308.15 K
resultType: solubility (mole fraction)
// keep it numeric: no unit symbol after the value

[Q] Any idea what solubility (mole fraction) was measured for N=C(Nc1ccccc1)Nc1ccccc1 ?
[A] 0.0494

====

- runParameters: in isobutanol, 283.15 K
resultType: solubility (mole fraction)

[Q] # query: solubility (mole fraction) of entry N=C(Nc1ccccc1)Nc1ccccc1
[A] 0.0176

====

- runParameters: in ethanol, 308.15 K
resultType: solubility (mole fraction)
Quick one: just the number, no unit, thanks!

[Q] Bench note: what solubility (mole fraction) did N=C(Nc1ccccc1)Nc1ccccc1 show?
[A] 0.0419

====

- runParameters: in acetone, 300.65 K
resultType: solubility (mole fraction)
Number only, please.

[Q] What value of solubility (mole fraction) has been reported for the following compound? N=C(Nc1ccccc1)Nc1ccccc1
[A] 0.0993

====

- runParameters: in acetone, 290.65 K
resultType: solubility (mole fraction)

[Q] Fill in: solubility (mole fraction) of N=C(Nc1ccccc1)Nc1ccccc1 is ___
[A] 0.0751

====

- runParameters: in n-butanol, 280.65 K
resultType: solubility (mole fraction)
Lab note: write the figure by itself, no unit.

[Q] Entry under review: N=C(Nc1ccccc1)Nc1ccccc1 . Reported solubility (mole fraction)?
[A] 0.0227

====

- runParameters: in isobutanol, 300.65 K
resultType: solubility (mole fraction)

[Q] Quick check: solubility (mole fraction) of N=C(Nc1ccccc1)Nc1ccccc1 ?
[A] 0.0311

====

- runParameters: in toluene, 310.65 K
resultType: solubility (mole fraction)
I only need the number, thanks.

[Q] Given the compound N=C(Nc1ccccc1)Nc1ccccc1 , what is its reported solubility (mole fraction)?
[A] 0.00709
